As an illustration, consider measured pKi for molecules on Cystic fibrosis transmembrane conductance regulator (Homo sapiens).
Sequence (P13569 whole entry): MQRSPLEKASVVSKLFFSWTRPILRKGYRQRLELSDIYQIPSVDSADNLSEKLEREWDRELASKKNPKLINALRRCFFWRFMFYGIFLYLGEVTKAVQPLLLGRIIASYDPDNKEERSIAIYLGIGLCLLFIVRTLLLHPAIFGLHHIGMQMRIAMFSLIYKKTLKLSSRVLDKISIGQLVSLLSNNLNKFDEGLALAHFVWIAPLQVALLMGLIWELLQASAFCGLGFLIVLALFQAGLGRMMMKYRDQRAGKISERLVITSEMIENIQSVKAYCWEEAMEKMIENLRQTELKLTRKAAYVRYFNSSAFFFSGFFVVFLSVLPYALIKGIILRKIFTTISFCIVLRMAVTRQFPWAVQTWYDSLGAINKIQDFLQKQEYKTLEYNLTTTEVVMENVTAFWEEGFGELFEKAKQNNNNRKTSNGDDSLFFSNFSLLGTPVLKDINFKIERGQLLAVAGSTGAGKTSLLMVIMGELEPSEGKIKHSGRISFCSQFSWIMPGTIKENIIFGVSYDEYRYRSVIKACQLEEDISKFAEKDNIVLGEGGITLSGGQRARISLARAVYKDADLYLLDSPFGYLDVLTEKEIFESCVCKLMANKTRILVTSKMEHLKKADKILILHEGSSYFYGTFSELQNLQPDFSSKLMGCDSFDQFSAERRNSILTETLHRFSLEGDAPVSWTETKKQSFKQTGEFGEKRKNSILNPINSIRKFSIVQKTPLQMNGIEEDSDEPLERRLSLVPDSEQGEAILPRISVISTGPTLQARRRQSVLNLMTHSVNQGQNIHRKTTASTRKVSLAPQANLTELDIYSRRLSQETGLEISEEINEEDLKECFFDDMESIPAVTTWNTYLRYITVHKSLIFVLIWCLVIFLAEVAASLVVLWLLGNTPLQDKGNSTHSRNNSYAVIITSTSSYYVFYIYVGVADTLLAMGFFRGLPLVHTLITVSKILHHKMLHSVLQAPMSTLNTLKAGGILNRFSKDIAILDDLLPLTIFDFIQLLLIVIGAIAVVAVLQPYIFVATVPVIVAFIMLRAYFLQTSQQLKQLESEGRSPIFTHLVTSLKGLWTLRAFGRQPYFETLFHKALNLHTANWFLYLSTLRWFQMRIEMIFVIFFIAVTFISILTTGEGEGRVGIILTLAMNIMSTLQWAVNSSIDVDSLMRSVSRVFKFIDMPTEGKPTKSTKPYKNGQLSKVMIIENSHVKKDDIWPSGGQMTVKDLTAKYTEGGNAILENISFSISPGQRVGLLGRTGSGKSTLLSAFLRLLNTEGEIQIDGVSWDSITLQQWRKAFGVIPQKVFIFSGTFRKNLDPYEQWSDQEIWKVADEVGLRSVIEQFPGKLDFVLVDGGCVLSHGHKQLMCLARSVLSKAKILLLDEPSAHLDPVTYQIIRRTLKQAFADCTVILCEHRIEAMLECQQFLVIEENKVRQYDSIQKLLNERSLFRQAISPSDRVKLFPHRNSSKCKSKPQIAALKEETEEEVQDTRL
pKi: −log10 of the molar value.

{"columns": ["MOLECULE", "pKi"],
 "data": [
  ["O=c1cc(-c2ccncc2)oc2c1cc(-c1ccco1)c1ccccc12", 5.77],
  ["O=c1cc(-c2ccc(O)cc2)oc2cc(O)cc(O)c12 [APIGENIN]", 5.32]
]}

###

PROTOCOL_SUMMARY: In vivo activation CFTR expressed in wild-type CD1 mouse assessed as hyperpolarization of ocular surface by measuring potential difference at 1 to 10 uM
Type: functional
PROTOCOL_CONDITIONS: dose 1-10 µM
Assign class by Activity: not lower than -9 mV means Condition met; lower than -9 mV means Condition not met.

{"columns": ["MOLECULE", "ANSWER_LABEL"],
 "data": [
  ["CCOc1ccccc1CC(=O)Nc1nnc(Cc2ccc(OC)c(OC)c2)s1", "Condition met"],
  ["Cc1cc(C)cc(/N=C2/NC(=O)/C(=C/c3ccc(O)cc3)S2)c1", "Condition met"],
  ["CNc1nc(Nc2ccc([N+](=O)[O-])cc2)nc(OCC(F)(F)C(F)F)n1", "Condition not met"],
  ["CNc1nc(Nc2cccc([N+](=O)[O-])c2)nc(OCC(F)(F)F)n1", "Condition met"],
  ["O=C(c1cccs1)N1N=C(c2ccccc2)CC1c1ccccc1[N+](=O)[O-] (stereo unspecified)", "Condition met"],
  ["CCN(CC)c1nc(Nc2ccccc2)nc(OC(C(F)(F)F)C(F)(F)F)n1", "Condition met"],
  ["CC/N=C1\\S/C(=C\\c2ccc3c(c2)OCO3)C(=O)N1CC", "Condition met"],
  ["COc1ccc(Cc2nnc(NC(=O)Cc3c(F)cccc3Cl)s2)cc1OC", "Condition met"],
  ["COc1ccc(Cc2nnc(NC(=O)Cc3cccs3)s2)cc1OC", "Condition met"],
  ["COc1ccccc1CC(=O)Nc1nnc(Cc2ccc(OC)c(OC)c2)s1", "Condition not met"]
]}

###

TARGET_OF_ASSAY: Cystic fibrosis transmembrane conductance regulator (Homo sapiens)
PROTOCOL_SUMMARY: Activation of human CFTR expressed in rat FRT cells
Type: cell-based
Lab note: cut-off is 600 nM. Strictly less in EC50 is Satisfied. Exactly 600 nM or more is Not satisfied.

{"columns": ["STRUCTURE_SMILES", "ANSWER_LABEL"],
 "data": [
  ["Nc1ccc([N+](=O)[O-])cc1-c1nc2ccccc2n(Cc2ccccc2)c1=O", "Satisfied"],
  ["CCOc1ccccc1CC(=O)Nc1nnc(Cc2ccc(OC)c(OC)c2)s1", "Satisfied"],
  ["COc1ccc(Cc2nnc(NC(=O)Cc3c(F)cccc3Cl)s2)cc1OC", "Satisfied"],
  ["CC/N=C1\\S/C(=C\\c2ccc3c(c2)OCO3)C(=O)N1CC", "Not satisfied"],
  ["CNc1nc(Nc2cccc([N+](=O)[O-])c2)nc(OCC(F)(F)F)n1", "Satisfied"],
  ["COc1ccc(Cc2nnc(NC(=O)Cc3cccs3)s2)cc1OC", "Not satisfied"]
]}

###

TARGET_OF_ASSAY: Cystic fibrosis transmembrane conductance regulator (Homo sapiens)
PROTOCOL_SUMMARY: Activation of human wildtype CFTR
pEC50: −log10 of the molar value.

{"columns": ["STRUCTURE_SMILES", "pEC50"],
 "data": [
  ["CNc1nc(Nc2ccccc2)nc(OCC(F)(F)C(F)F)n1", "~7.52"]
]}
